FYI, the data here is from the Human Domainome abundance scans (Beltran et al. 2025).

B1: POU domain, class 5, transcription factor 1, residues 134 to 212; numbered along this chain, Q01860 (parent)
chain: EESQDIKALQKELEQFAKLLKQKRITLGYTQADVGLTLGVLFGKVFSQTTICRFEALQLSFKNMCKLRPLLQKWVEEAD

Variants of: B1
Assay: abundance fitness (aPCA) (normalised: wild type 0, dead -1); higher = more abundant; growth selection in yeast, the domain comes from the species named
Settings: Homo sapiens
So I've got a bunch of variants here, and I need their abundance fitness values.
Answers are plain numbers.

mutationString | obsValue
L38G | -0.832
T30V | -0.392
G43A | -0.282
M64F | -0.8
E14L | -0.168

# batch size: 3; output abundance fitness per entry
1. L27G
2. A32E
3. E12S

-0.387
-0.024
-0.094

# batch size: 2; output abundance fitness per entry
1. L38H
2. L9E

-0.313
0.017
